B1: library; numbered along this chain (parent)
chain: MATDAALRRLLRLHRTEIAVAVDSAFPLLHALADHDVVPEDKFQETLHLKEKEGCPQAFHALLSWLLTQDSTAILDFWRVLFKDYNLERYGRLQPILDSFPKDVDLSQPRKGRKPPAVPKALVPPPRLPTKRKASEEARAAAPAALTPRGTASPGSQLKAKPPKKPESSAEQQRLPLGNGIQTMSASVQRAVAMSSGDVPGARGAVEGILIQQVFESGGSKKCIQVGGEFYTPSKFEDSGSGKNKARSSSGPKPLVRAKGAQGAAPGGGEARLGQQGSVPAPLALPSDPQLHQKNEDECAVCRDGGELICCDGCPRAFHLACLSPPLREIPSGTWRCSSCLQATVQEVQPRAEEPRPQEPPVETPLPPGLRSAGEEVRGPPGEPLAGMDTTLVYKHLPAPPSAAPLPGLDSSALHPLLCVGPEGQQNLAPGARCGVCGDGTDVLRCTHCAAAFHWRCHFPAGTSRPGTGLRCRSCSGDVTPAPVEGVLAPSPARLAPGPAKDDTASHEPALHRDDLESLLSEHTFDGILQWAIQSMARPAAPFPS

Variants of: B1
assay.overview: AIRE transcriptional activation functional score (insulin promoter-GFP; nonsense median 0, synonymous median 1) (normalised score); higher = higher AIRE activity (more reporter activation)
stated.conditions: with insulin promoter-GFP reporter in HEK293
reported.endpoint: AIRE transcriptional activation functional score
Number only, please.

- Y85R: -0.639
- G467A: 0.947
- A540C: 1.37
- R174F: 1.53
- Q173G: 0.757

Endpoint output: AIRE transcriptional activation functional score of T390A . Value?
0.741
